target: porcine pancreatic lipase (Sus scrofa, UniProt P00591); test: in vitro pancreatic lipase activity test (lipolytic release of p-nitrophenol from p-nitrophenyl palmitate, extinction at 405 nm); format: biochemical; conditions: test substance concentration (c) 0.727 μM; substrate p-nitrophenyl palmitate; read-out: residual lipase activity, relative to the original initial lipolytic activity
Sequence (P00591 whole entry): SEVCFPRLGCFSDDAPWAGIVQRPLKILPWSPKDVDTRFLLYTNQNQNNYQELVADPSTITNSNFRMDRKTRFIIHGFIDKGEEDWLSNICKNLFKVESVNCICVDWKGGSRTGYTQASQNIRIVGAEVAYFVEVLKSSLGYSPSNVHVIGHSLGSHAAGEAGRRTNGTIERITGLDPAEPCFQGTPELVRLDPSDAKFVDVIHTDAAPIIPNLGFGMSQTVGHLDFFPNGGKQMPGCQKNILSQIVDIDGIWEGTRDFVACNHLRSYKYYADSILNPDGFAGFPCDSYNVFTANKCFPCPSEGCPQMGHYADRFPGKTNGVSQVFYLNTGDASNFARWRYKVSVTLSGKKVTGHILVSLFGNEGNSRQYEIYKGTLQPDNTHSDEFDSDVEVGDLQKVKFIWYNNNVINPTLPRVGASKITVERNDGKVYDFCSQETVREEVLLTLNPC
Recorded endpoint: remaining activity at 0.727 µM

• O=C(CCCCCCCCCc1ccccc1)C(F)(F)F = ≤ 60%
• O=C(CCCC(=O)C(F)(F)F)c1ccc(Br)cc1 = ≤ 35%
• O=C(CCCCCCCCCCOc1ccccc1)C(F)(F)F = ≤ 60%
• COc1ccc(CCCC(=O)C(F)(F)F)cc1 = ≤ 60%
• O=C(CCCC(=O)C(F)(F)F)c1cccc(OCc2ccccc2)c1 = ≤ 20%

###

molecular target: UniProt:P00591; assay: in vitro pancreatic lipase activity test (lipolytic release of p-nitrophenol from p-nitrophenyl palmitate, extinction at 405 nm); type: biochemical; settings: test substance concentration 0.182 μM; substrate p-nitrophenyl palmitate; read-out: residual lipase activity, relative to the original initial lipolytic activity
Recorded endpoint: remaining activity at 0.182 µM

* COc1ccc(C(=O)C(CCCCOc2ccccc2)CCC(=O)C(F)(F)F)cc1 (centres unmarked) | ≤ 20%
* COc1ccc(C(=O)CCCC(=O)C(F)(F)F)cc1CCCCc1ccccc1 | ≤ 35%
* O=C(CCCC(=O)C(F)(F)F)c1ccc(OCCCc2ccccc2)cc1 | ≤ 35%
* O=C(CCCC(=O)C(F)(F)F)c1ccc(OCCCCOc2ccccc2)cc1 | ≤ 35%
* O=C(CCCC(=O)C(F)(F)F)c1ccc(-c2cccc3ccccc23)cc1 | ≤ 20%

###

Reported remaining activity at 0.727 µM values for the following compounds.
molecular target: porcine pancreatic lipase (Sus scrofa, UniProt P00591); assay: in vitro pancreatic lipase activity test (lipolytic release of p-nitrophenol from p-nitrophenyl palmitate, extinction at 405 nm); type: biochemical; conditions: range of examples with mixed concentrations: 0.727 μM unless otherwise stated; Ex. 17, 28, 29, 32, 39, 40, 47, 48, 56, 58, 59 at 0.364 μM; 21, 35, 37, 38, 49, 50, 51, 54, 55, 64 at 0.182 μM; 46, 61, 62, 65 at 0.091 μM; read-out: residual lipase activity, relative to the original initial lipolytic activity
Recorded endpoint: remaining activity at 0.727 µM

- O=C(CCCC(=O)C(F)(F)F)c1ccc(-c2ccc3ccccc3c2)cc1: ≤ 20%
- O=C(CCCC(=O)C(F)(F)F)c1ccc2c(c1)CCCC2: ≤ 20%
- O=C(CCCC(=O)C(F)(F)F)c1ccc(OCCCc2ccccc2)cc1: ≤ 60%
- O=C(CCCC(=O)C(F)(F)F)c1ccc(OCCCCOc2ccccc2)cc1: ≤ 60%
